Data provenance is paper PMC12108418.

Tested on: Pseudomonas aeruginosa (ATCC 27853)
Type: cell-based
settings: broth microdilution in CAMHB, 5 × 10^4 CFU/well, 1% DMSO, 37 °C, 16–20 h, 256 to 0.125 µg/mL, triplicate (n = 3)
Square brackets hold non-standard residues; d marks the D form. Peptide text beside a SMILES is read from it. Orn = NCCC[C@H](N)C(=O)O; Abu = CC[C@H](N)C(=O)O
measurement.type: MIC P. aeruginosa ATCC 27853 (µg/mL)
Use µg/mL as the unit, but write only the number.

Problem: Look up MIC P. aeruginosa ATCC 27853 for this molecule: CC[C@@H]1NC(=O)[C@@H]2CCCN2C(=O)[C@@H](Cc2ccccc2)NC(=O)[C@H](CC(C)C)NC(=O)[C@H](CCCNC(=N)N)NC(=O)[C@H](C(C)C)NC(=O)[C@@H]2CCCN2C(=O)[C@@H](CCCNC(=N)N)NC(=O)[C@H](CC(C)C)NC(=O)[C@H](CCCN)NC1=O [Peptide 16] (cyclo([Abu][Orn]L[dR]PVRL[dF]P))
Result: 64
